Overview of recorded pIC50 for various compounds
molecular target: Lambda DNA; assay: Ethidium bromide displacement, lambda DNA; details: 1 μM DNA, 1.26 μM ethidium bromide, pH 7.0, read-out: FI50, Lambda DNA
The read-out pIC50 is expressed as -log10 of concentration in moles per litre.

In the examples that follow, each entry is paired with its recorded pIC50.
O=C1c2cccc3cc([N+](=O)[O-])cc(c23)C(=O)N1CCNCCS(=O)(=O)CCN1C(=O)c2cccc3cc([N+](=O)[O-])cc(c23)C1=O [Compound 14]
4.62
O=C1c2cccc3cc([N+](=O)[O-])cc(c23)C(=O)N1CCNCC[S+]([O-])CCN1C(=O)c2cccc3cc([N+](=O)[O-])cc(c23)C1=O (stereo not shown) [Compound 12]
6.77

GET pIC50 | system: Lambda DNA | item: O=C1c2cccc3cc([N+](=O)[O-])cc(c23)C(=O)N1CCNCCS(=O)(=O)CCN1C(=O)c2cccc3cc([N+](=O)[O-])cc(c23)C1=O [Compound 15]
5.99

Give pIC50 for this entry on Lambda DNA: O=C1c2cccc3cc([N+](=O)[O-])cc(c23)C(=O)N1CCNCC[S+]([O-])CCN1C(=O)c2cccc3cc([N+](=O)[O-])cc(c23)C1=O (stereo not shown) [Compound 13]
6.74

Write pIC50 of O=C1c2cccc3cc([N+](=O)[O-])cc(c23)C(=O)N1CCNCCSCCN1C(=O)c2cccc3cc([N+](=O)[O-])cc(c23)C1=O ; system used: Lambda DNA
5.13

// output pIC50; input O=C1c2cccc3cc([N+](=O)[O-])cc(c23)C(=O)N1CCOCCOCCN1C(=O)c2cccc3cc([N+](=O)[O-])cc(c23)C1=O ; system Lambda DNA
4.25

Report value only: pIC50, Lambda DNA, C[C@H](CNCCNC[C@@H](C)N1C(=O)c2cccc3cc([N+](=O)[O-])cc(c23)C1=O)N1C(=O)c2cccc3cc([N+](=O)[O-])cc(c23)C1=O
7.14
